- Test system: MCF7
- assay comment: Antiproliferative activity against human MCF7 cells after 72 hrs by MTT assay
- Format: functional, cell-based
- experimental context: MCF7, 72 h
measured property: IC50

Guide cases for IC50, answers given:
**Query** Any idea what IC50 was measured for `O=c1c2c(O)cccc2oc2cc(NS(=O)(=O)Cc3ccccc3)c(O)c(O)c12` ?
**Result** > 200 µM

**Query** `O=c1c2c(O)cccc2oc2cc(NS(=O)(=O)c3ccc(N4CCCC4)cc3)c(O)c(O)c12` ?
**Result** > 200 µM

More entries:
**Query** Any idea what IC50 was measured for `O=C1c2ccccc2C(=O)c2c1cc(S(=O)(=O)Nc1ccc(C(F)(F)F)cc1)c(O)c2O` ?
**Result** > 40 µM
